# SYSTEM: T1, His-tagged PD-L1 protein (human, UniProt Q9NZQ7 19-238)
# T1 construct: also called His-tagged antigen PD-L1 protein; human PD-L1; not shown: His tag
# T1 sequence (Q9NZQ7 19-238 limits assumed): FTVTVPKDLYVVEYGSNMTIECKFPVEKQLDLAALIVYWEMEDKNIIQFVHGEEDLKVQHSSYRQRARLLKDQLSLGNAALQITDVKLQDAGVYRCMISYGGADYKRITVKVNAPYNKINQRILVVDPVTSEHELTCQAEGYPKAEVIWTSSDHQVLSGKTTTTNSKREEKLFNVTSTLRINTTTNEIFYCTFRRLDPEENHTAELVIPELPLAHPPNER
# MEASUREMENT DESCRIPTION: SPR, Biacore T200, multi-cycle; Fab captured on chip, His-tagged PD-L1 as analyte
PROPERTY NAME: Kd (nM)
Lab book: enter the figure in nM, no units written.

query: Name the recorded Kd for AS01825 (humanized Fab) (Fab, V domains shown, Purified humanized Fab) VH: QMQLVQSGAEVKKTGSSVKVSCKASGYTFTSYSINWVRQMPGKGLEWMGYFYVGNGYTDYNEKFKGRVTITADESTSTAYMELSSLRSEDTAVYYCARGGLPYYFDYWGQGTLVTVSS VL: DIQLTQSPSFLSASVGDRVTITCKTSQDVNTAVAWYQQKPGKAPKLLIYWASTRHTGVPSRFSGSGSGTDFTLTISSLQPEDVATYYCQQHYNTPLTFGGGTKLEIK .
result: 1.1

query: Name the recorded Kd for AS01978 (humanized Fab) (Fab, V domains shown, Purified humanized Fab) VH: EVQLVQSGAEVKKPGESLKISCKGSGYSFTSYSINWVRQAPGKGLEWMGYFYVGNGYTDYNEKFKGRVTITTDESTSTAYMELSSLRSEDTAVYYCARGGLPYYFDYWGQGTLVTVSS VL: DIQLTQSPSSLSASVGDRVTITCKTSQDVNTAVAWYQQKPDQSPKLLIKWASTRHTGVPSRFSGSGSGTDFTLTISSLQPEDFATYYCQQHYNTPLTFGGGTKLEIK .
result: 1.6

query: Name the recorded Kd for AS01807 (humanized Fab) (Fab, V domains shown, Purified humanized Fab) VH: QVQLVQSGSELKKPGASVKVSCKASGYTFTSYSINWVRQAPGKGLEWMGYFYVGNGYTDYNEKFKGRVTITRDTSASTAYMELSSLRSEDTAVYYCARGGLPYYFDYWGQGTLVTVSS VL: DIQMTQSPSSVSASVGDRVTITCKTSQDVNTAVAWYQQKPDQSPKLLIKWASTRHTGVPSRFSGSGSGTDFTLTISSLQPEDFATYYCQQHYNTPLTFGGGTKLEIK .
result: 1.4
